All values here come from ChEMBL document CHEMBL3433997.

Assign inhibition to each entry below.
- TEST TARGET: Solute carrier family 2, facilitated glucose transporter member 1 (Homo sapiens) (UniProt P11166)
- Sequence (P11166 whole entry): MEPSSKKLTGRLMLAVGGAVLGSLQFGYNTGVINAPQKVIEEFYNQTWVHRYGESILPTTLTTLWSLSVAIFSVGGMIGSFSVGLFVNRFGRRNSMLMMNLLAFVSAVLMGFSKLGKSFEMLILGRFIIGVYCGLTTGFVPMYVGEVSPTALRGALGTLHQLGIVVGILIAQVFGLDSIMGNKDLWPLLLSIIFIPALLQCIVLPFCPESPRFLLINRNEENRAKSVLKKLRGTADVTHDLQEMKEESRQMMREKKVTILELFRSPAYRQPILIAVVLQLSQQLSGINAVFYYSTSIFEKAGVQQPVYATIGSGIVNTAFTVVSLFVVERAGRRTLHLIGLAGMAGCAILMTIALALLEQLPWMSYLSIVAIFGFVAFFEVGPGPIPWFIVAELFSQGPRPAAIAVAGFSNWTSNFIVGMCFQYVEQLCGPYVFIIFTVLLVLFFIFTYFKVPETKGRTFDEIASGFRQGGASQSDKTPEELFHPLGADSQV
- ASSAY OVERVIEW: ST_JUDE_LEISH: Cytotoxicity at 2uM final concentration against transgenic Leishmania Mexicana promastigotes LmGLUT1 that are glucose transport deficient and complemented with the human glucose transporter GLUT1. Activity is measured by DNA content using SYBR green in vitro
- Assay type: functional
State just the number; it will be interpreted in %.

Q: For the molecule `CCOc1cc(Cc2cnc(N)nc2N)cc(Br)c1OC` , give its reported inhibition.
Ans: 0.49

Q: For the molecule `CN(C)CCCOc1cccc(NC(=O)Nc2ccc(-c3ccccc3)cc2)c1` , give its reported inhibition.
Ans: -1.01

Q: For the molecule `CCCc1cc(Cc2cnc(N)nc2N)ccc1OCCCCCC(=O)O` , give its reported inhibition.
Ans: 1.42

Q: For the molecule O=C(C1CCN(C(c2ccccc2)c2ccc(Cl)c(Cl)c2)CC1)N1CC=CC1 (configuration not stated) , give its reported inhibition.
Ans: 0.54

Q: For the molecule `NS(=O)(=O)Cc1cccc(-c2ccnc3ccc(-c4cccc(S(N)(=O)=O)c4)cc23)c1` , give its reported inhibition.
Ans: 3.2

Q: For the molecule `Fc1ccc(-c2cncc(Nc3ccncc3)n2)cc1` , give its reported inhibition.
Ans: 6.02

Q: For the molecule O=C(CCCCCNC(=O)c1ccc(O)c(-c2ccc(Cl)c(Cl)c2)c1)NC1CCCc2ccccc21 (configuration not stated) , give its reported inhibition.
Ans: 2.15

Q: For the molecule `O=C(NCc1ccc(F)cc1)Nc1cccc(-c2ccc(-c3nc4ccccc4[nH]3)cc2)c1` , give its reported inhibition.
Ans: 1.76

Q: For the molecule `CN(C)c1ccc(-c2ccc(C(=O)NC3CCN(Cc4ccc(C(C)(C)C)cc4)CC3)s2)cc1` , give its reported inhibition.
Ans: 2.66

Q: For the molecule `Nc1nccc(-c2ccc3c(-c4cccc(F)c4)cnc(N)c3c2)n1` , give its reported inhibition.
Ans: -0.44

Q: For the molecule c1ccc2c3c([nH]c2c1)C(c1ccc2c(c1)CCO2)N(c1ncnc(N2CCN(CCCN4CCOCC4)CC2)n1)CC3 (configuration not stated) , give its reported inhibition.
Ans: 8.79

Q: For the molecule `COc1ccc2nccc([C@@H](O)CN3CCC(NCCOc4cc(C(F)(F)F)ccc4F)CC3)c2c1` , give its reported inhibition.
Ans: 21.5

Q: For the molecule `CN1CCC(N(Cc2ccc(-c3ccc(C(F)(F)F)cc3)nc2)C(=O)Cn2c(CCc3cccc(F)c3F)cc(=O)c3ccccc32)CC1` , give its reported inhibition.
Ans: 6.73

Q: For the molecule CCCC(C)NC[C@@H](O)[C@H](Cc1ccccc1)NC(=O)c1cc(NCC)cc(N2CCCCS2(=O)=O)c1 (some centres not stated) , give its reported inhibition.
Ans: 0.32

Q: For the molecule `O=C(NCCc1ccccc1)N(Cc1ccccc1-c1ccc(CNCCc2ccccc2)cc1)C1CCN(Cc2ccccc2)CC1` , give its reported inhibition.
Ans: 7.2

Q: For the molecule `O=C(Nc1ccc(Cl)cc1)Nc1ccc(Cn2ncc(N3CCCNCC3)c(Cl)c2=O)cc1` , give its reported inhibition.
Ans: 2.02

Q: For the molecule `COc1ccc(NC(=O)/C=C/c2ccccc2Cl)cc1OCCN1CCC(NC2CC2)CC1` , give its reported inhibition.
Ans: 8.25

Q: For the molecule O=C(NC1CCCCN(Cc2ccccc2O)C1)c1cccc(Cl)c1 (configuration not stated) , give its reported inhibition.
Ans: 1.27

Q: For the molecule COc1cc(C(=O)N2CCC(CCN3CCC4(CC3)CN(S(C)(=O)=O)c3ccccc34)CC2Cc2ccc(Cl)c(Cl)c2)cc(OC)c1OC (configuration not stated) , give its reported inhibition.
Ans: 3.23

Q: For the molecule `Cc1cc(-c2cc3nc4c(c(O)n3n2)CCCC4)c(C)o1` , give its reported inhibition.
Ans: 4.05

Q: For the molecule `O=C(c1cc2c(s1)-c1cccc(Cl)c1SC2)N1CCN(c2ccncc2)CC1` , give its reported inhibition.
Ans: 4.7

Q: For the molecule O=C(Nc1ccc(Cl)cc1)N(CC1CC2CCC(C1)N2Cc1ccc(C(F)(F)F)cc1)c1ccc(N2CCOCC2)c(F)c1 (configuration not stated) , give its reported inhibition.
Ans: 6.73
